Values from ChEMBL document CHEMBL4715728

Protocol: Stability of compound in non-enzymatic stimulated-gastric fluid at pH 1.3 assessed as rate of compound hydrolysis by HPLC-UV assay
Format: physicochemical
Experimental setup: simulated gi fluid
Label key: met means Drug degradation under 0.008 h⁻¹; not met means Drug degradation of 0.008 h⁻¹ or more.

Field: example entries. Status: answers known.
> print(dat)
                                   molecule  assigned.class
1  COc1ccc(CN2CCC(OC(=O)CCCCC3CCSS3)CC2)cc1 (stereo unspecified)         not met
2  O=C(CCCCC1CCSS1)OC1CCN(Cc2ccccc2)CC1 (stereo unspecified)         not met
3  O=C(CCCCC1CCSS1)OC1CCN(Cc2ccc(F)cc2)CC1 (stereo unspecified)         not met

Does the reported Drug degradation of O=C(CCCCC1CCSS1)N1CCN(Cc2ccccc2)CC1 (stereo unspecified) stay below 0.008 h⁻¹? met

Another molecule: COc1ccc(CN2CCN(C(=O)CCCCC3CCSS3)CC2)cc1 (stereo unspecified) met

###

Protocol: Stability of compound in fasted state stimulated intestinal fluid at pH 1.3 assessed as half life in presence of 10 mg/ml pepsin by HPLC-UV assay
Format: ADME
Experimental setup: fasted state simulated intestinal fluid with pepsin
Result type: half-life
Hi, when you answer, please include the unit after the number. Thanks!

These recorded examples may help you get a feel for the data.
> print(dat)
                                   compound  result.type  test.result
1  O=C(CCCCC1CCSS1)OC1CCN(Cc2ccccc2)CC1 (stereo unspecified)    half-life       24.5 h
2  O=C(CCCCC1CCSS1)OC1CCN(Cc2ccc(F)cc2)CC1 (stereo unspecified)    half-life       3.77 h
3  COc1ccc(CN2CCN(C(=O)CCCCC3CCSS3)CC2)cc1 (stereo unspecified)    half-life        112 h
4  O=C(CCCCC1CCSS1)N1CCN(Cc2ccccc2)CC1 (stereo unspecified)    half-life         69 h
5  O=C(CCCCC1CCSS1)N1CCN(Cc2ccc(F)cc2)CC1 (stereo unspecified)    half-life        107 h

Name the reported half-life value associated with the compound COc1ccc(CN2CCC(OC(=O)CCCCC3CCSS3)CC2)cc1 (stereo unspecified) 39.1 h

###

Protocol: Stability of compound in human plasma assessed as rate of compound hydrolysis by HPLC-UV assay
Assay type: ADME, cell-free
The reader will find reported Drug degradation values listed item by item below.
Write the answer as a number in h⁻¹, unit excluded.

> print(dat)
                                   molecule  measurement.unit  test.result
1  O=C(CCCCC1CCSS1)N1CCN(Cc2ccc(F)cc2)CC1 (stereo unspecified)               h⁻¹        0.165
2  O=C(CCCCC1CCSS1)OC1CCN(Cc2ccccc2)CC1 (stereo unspecified)               h⁻¹         1.61
3  O=C(CCCCC1CCSS1)N1CCN(Cc2ccccc2)CC1 (stereo unspecified)               h⁻¹         0.39
4  O=C(CCCCC1CCSS1)OC1CCN(Cc2ccc(F)cc2)CC1 (stereo unspecified)               h⁻¹        0.856

Name the reported Drug degradation value associated with the molecule COc1ccc(CN2CCC(OC(=O)CCCCC3CCSS3)CC2)cc1 (stereo unspecified) 1.14

Another molecule: COc1ccc(CN2CCN(C(=O)CCCCC3CCSS3)CC2)cc1 (stereo unspecified) 0.13
